Data origin, for the record: patent US10414760B2

Below: a set of entries, each annotated with reported IC50.
- testSystem: CYP19 (Homo sapiens)
- Construct: purchased BD Gentest 456260
- Sequence (P11511 whole entry): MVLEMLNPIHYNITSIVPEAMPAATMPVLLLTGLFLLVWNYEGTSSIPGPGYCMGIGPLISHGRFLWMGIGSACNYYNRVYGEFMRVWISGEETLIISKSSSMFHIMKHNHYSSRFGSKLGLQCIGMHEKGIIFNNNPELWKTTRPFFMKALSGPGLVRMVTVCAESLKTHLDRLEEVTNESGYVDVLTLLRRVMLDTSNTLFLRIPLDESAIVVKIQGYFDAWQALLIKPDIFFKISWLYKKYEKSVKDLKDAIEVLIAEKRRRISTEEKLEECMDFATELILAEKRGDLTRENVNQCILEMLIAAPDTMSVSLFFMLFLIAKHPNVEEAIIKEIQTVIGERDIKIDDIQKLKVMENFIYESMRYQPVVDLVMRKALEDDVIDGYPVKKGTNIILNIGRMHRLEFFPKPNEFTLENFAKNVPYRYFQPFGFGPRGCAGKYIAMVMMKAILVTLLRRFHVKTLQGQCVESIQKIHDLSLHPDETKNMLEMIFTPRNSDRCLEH
- assayRemarks: CYP19 inhibition: commercially available recombinant enzyme and assay kit
- Type: biochemical

INSERT INTO assay_data (compound, result) VALUES
  ('CCC(CC)C(c1ccc2nc(Br)sc2c1)n1ccnc1 (centres unmarked)', '< 1000 nM'),
  ('CCC(C(c1ccc2nc(NC(N)=O)sc2c1)n1ccnc1)N(C)C (centres unmarked)', '< 1000 nM'),
  ('CCC(C(c1ccc2nc(N)sc2c1)n1ccnc1)N(C)CC (centres unmarked)', '< 1000 nM'),
  ('CCC(C(c1ccc2nc(NC(C)=O)sc2c1)n1ccnc1)N(C)CC (centres unmarked)', '< 1000 nM'),
  ('CCC(C(c1ccc2nc(C(=N)OC)sc2c1)n1ccnc1)N(C)C (centres unmarked)', '< 1000 nM');

Request: IC50, test system CYP19 (Homo sapiens), entry CCC(C(c1ccc2nc(C(N)=O)sc2c1)n1ccnc1)N(C)C (centres unmarked)
< 1000 nM

Lookup: IC50 / CYP19 (Homo sapiens) / CCC(C(c1ccc2nc(Br)sc2c1)n1ccnc1)N(C)CC (centres unmarked)
< 1000 nM

// fetch CYP19 (Homo sapiens) IC50 for CCC(C(c1ccc2nc(Cl)sc2c1)n1ccnc1)N(C)CC (centres unmarked)
< 1000 nM
